- Subject of test: CDK9/CycT1 (Homo sapiens)
- Construct: Recombinant full-length His-tagged human CDK9 and CycT1; His; purchased Invitrogen PV4131; host or cells: insect cells
- Sequence (P50750 whole entry): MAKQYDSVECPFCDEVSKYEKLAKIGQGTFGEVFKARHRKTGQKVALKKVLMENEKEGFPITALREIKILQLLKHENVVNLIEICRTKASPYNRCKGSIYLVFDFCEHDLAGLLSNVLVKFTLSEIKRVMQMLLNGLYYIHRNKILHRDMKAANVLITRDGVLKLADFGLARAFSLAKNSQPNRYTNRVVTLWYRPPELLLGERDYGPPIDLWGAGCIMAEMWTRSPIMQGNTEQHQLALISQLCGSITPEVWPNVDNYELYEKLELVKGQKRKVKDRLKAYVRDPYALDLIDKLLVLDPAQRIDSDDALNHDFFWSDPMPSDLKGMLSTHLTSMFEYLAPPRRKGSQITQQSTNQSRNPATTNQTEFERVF
- Sequence (O60563 whole entry partner): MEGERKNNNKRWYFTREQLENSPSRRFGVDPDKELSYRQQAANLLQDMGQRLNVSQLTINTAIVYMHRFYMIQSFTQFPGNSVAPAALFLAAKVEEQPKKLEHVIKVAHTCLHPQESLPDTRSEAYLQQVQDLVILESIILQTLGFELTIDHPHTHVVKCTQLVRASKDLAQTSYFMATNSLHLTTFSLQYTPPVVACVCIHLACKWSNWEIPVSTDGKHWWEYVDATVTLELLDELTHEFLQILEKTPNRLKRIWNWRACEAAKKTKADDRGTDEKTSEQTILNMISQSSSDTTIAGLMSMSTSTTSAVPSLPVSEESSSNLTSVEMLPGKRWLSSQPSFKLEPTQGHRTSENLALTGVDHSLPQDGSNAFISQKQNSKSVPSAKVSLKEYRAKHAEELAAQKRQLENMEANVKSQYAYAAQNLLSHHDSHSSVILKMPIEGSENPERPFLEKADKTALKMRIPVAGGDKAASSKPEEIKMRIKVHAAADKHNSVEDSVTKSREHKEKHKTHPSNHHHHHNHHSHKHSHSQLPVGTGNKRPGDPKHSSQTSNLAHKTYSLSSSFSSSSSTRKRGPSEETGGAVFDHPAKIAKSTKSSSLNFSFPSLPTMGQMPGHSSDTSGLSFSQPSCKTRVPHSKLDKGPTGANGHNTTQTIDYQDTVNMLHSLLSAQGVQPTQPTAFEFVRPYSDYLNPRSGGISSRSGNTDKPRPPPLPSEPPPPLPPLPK
- Procedure summary: CDK9/CycT1 kinase assay (Method 1a, TR-FRET)
- Format: biochemical
- Experimental parameters: ratio of Method 2 to Method 1a values
# note: exactly 40 is not below, so it is NO; use YES for Selectivity CDK9 over CDK2: IC50 (CDK2)/IC50 (CDK9) strictly under it

Here's what some known entries look like.
- Compound: "CS(=O)(Cc1ccnc(Nc2cc(-c3ccc(F)c4ccoc34)c(F)cn2)c1)=NC(=O)NCC(F)(F)F (racemic) [Example 13]"
  Subject of test: "CDK9/CycT1 (Homo sapiens)"
  Answer label: "NO"
- Compound: "CS(=O)(Cc1cc(Nc2cc(-c3ccc(F)c4ccoc34)c(F)cn2)nc(C(F)(F)F)c1)=NC(=O)C(F)(F)F (racemic) [Example 4]"
  Subject of test: "CDK9/CycT1 (Homo sapiens)"
  Answer label: "YES"
- Compound: "CS(=O)(Cc1ccnc(Nc2cc(-c3ccc(F)c4ccoc34)c(F)cn2)c1)=NC(=O)C(F)(F)F (racemic) [Example 6]"
  Subject of test: "CDK9/CycT1 (Homo sapiens)"
  Answer label: "NO"
- Compound: "CCOC(=O)N=S(C)(=O)Cc1ccnc(Nc2cc(-c3ccc(F)c4ccoc34)c(F)cn2)c1 (racemic) [Example 11]"
  Subject of test: "CDK9/CycT1 (Homo sapiens)"
  Answer label: "NO"

Now look at this entry.
Prompt line: Identify whether the compound CS(=N)(=O)Cc1cc(F)nc(Nc2cc(-c3ccc(F)c4ccoc34)c(F)cn2)c1 (racemic) [Example 1] records Selectivity CDK9 over CDK2: IC50 (CDK2)/IC50 (CDK9) below 40.
Response line: YES

---

- Subject of test: CDK9/CycT1 (Homo sapiens)
- Construct: Recombinant full-length His-tagged human CDK9 and CycT1; His; purchased Invitrogen PV4131; host or cells: insect cells
- Procedure summary: CDK9/CycT1 kinase assay (Method 1a, TR-FRET)
- Format: biochemical
- Experimental parameters: Method 1a, 10 μM ATP
Entries and their IC50
Field format: number, assumed nM, no unit text.

Prompt line: Retrieve IC50 measured for CS(=O)(Cc1ccnc(Nc2cc(-c3ccc(F)c4ccoc34)c(F)cn2)c1)=NC(=O)C(F)(F)F (racemic) [Example 6] and print it.
Response line: 4.9

Prompt line: Retrieve IC50 measured for CS(=O)(Cc1ccnc(Nc2cc(-c3ccc(F)c4ccoc34)c(F)cn2)c1)=NC(=O)NCC(F)(F)F (racemic) [Example 13] and print it.
Response line: 2.6

Prompt line: Retrieve IC50 measured for CC(=O)N=S(C)(=O)Cc1ccnc(Nc2cc(-c3ccc(F)c4ccoc34)c(F)cn2)c1 (racemic) [Example 10] and print it.
Response line: 2.7

Prompt line: Retrieve IC50 measured for CS(=N)(=O)Cc1ccnc(Nc2cc(-c3ccc(F)c4ccoc34)c(F)cn2)c1 (racemic) [Example 5] and print it.
Response line: 3.4

Prompt line: Retrieve IC50 measured for CCOC(=O)N=S(C)(=O)Cc1ccnc(Nc2cc(-c3ccc(F)c4ccoc34)c(F)cn2)c1 (racemic) [Example 11] and print it.
Response line: 3.1

Prompt line: Retrieve IC50 measured for CCNC(=O)N=S(C)(=O)Cc1ccnc(Nc2cc(-c3ccc(F)c4ccoc34)c(F)cn2)c1 (racemic) [Example 12] and print it.
Response line: 2.6

Prompt line: Retrieve IC50 measured for Cc1cc(CS(C)(=N)=O)cc(Nc2cc(-c3ccc(F)c4ccoc34)c(F)cn2)n1 (racemic) [Example 7] and print it.
Response line: 2.1
